tested on: OVCAR-4 ovarian; assay: NCI-60 one-dose screen, 48 h; conditions: 10 µM unless noted
About 83,000 compounds went through this panel and 20% of them were active in at least one assay; those are over-represented in the sample as a whole. The source made the active and inactive calls. The calls were made as follows: active = growth percent below 10; inactive = the rest.
Possible outcomes: active, inactive

# Compound, Label
measured = [
    ("Cc1ccc(NC(=O)c2ccc(CN3CC[C@H](N(C)C)C3)c(C(F)(F)F)c2)cc1Nc1nccc(-c2cncnc2)n1", "active"),
    ("COc1ccc(OC)c(NC2=C(SCCc3ccccc3)C(=O)c3ccccc3C2=O)c1", "inactive"),
    ("Cc1cc(Nc2nc(N[C@@H](C)c3ncc(F)cn3)ncc2Cl)n[nH]1", "inactive"),
    ("O=C1CC(c2ccc3c(c2)OCO3)c2ncn(-c3ccc(Cl)cc3)c2N1 (stereo unspecified)", "inactive"),
    ("CNC(=O)c1c(C)oc2cc(Oc3ncnc4cc(OC)c(OC)cc34)ccc12", "inactive"),
    ("COc1ccc(COc2cc3oc(=O)c4cc(C(C)O)ccc4c3cc2OC)cc1 (stereo unspecified)", "inactive"),
]
